Molecular target: T1, cJun bZIP (human, UniProt P05412 252-308, limits assumed)
T1 construct: Purified from a His-SUMO fusion with the tag cleaved off; also called c-Jun bZIP domain; 60 amino acid c-Jun bZIP construct
T1 chain: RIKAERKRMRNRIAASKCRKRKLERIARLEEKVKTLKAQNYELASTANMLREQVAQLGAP
Assay: CD thermal denaturation, peptide 5 µM and c-Jun 5 µM
Bridge positions count the residues as written; N and C are the ends.
TEST READOUT: Tm (° C.) of peptide-c-Jun heterodimer
Expressed in ° C., but write only the number.

Use the examples below as a reference point.
Ac-EAEELVVEEDVLEEEIEQLEEKNKALKDEIEDLQKQY-NH2 (lactam 24-28 (inferred), Synthetic, NΔ20 CΔ7; also called cyclised form of 20/21) [HingeW variant peptide 21] :: 58.9
Ac-LEKEAEELVVEEDVLEEEIEQLEERNYALRKEIEDLQKQLEKL-NH2 (Synthetic, NΔ17 CΔ3; also called peptide 3) [HingeW peptide variant 3] :: 67.9

Attention now shifts to the item below.
// query # get_value(readout='Tm (° C.) of peptide-c-Jun heterodimer', item= Ac-LVVEEDVLEEEIEQLEEKNKALKDEIEDLQKQLEKLY-NH2 (also: table prints a different, shorter sequence for 7/8, also called linear form of 7/8) [HingeW variant peptide 7] )
// result 64.3
